Where do the numbers come from? From patent US20150147342A1.

Consider the following binders and their measured Percent Blocking of Ang-2FD Binding to Tie-2 readings.
experimental-system: T1, Mouse Ang-2FD-hFc (mouse (Mus musculus))
T1 construct: Order of the pieces follows the name; also called Dimeric Mouse Ang-2FD
test-name: ELISA, 16.67 nM antibody + 8 nM mouse Ang-2FD-hFc, on coated hTie-2-mFc (competitor)
Express the result in % but write the number alone.

Solved entries:
binder	result-value
H1H693P (antibody, V domains shown, Fully human antibody, human IgG1) VH: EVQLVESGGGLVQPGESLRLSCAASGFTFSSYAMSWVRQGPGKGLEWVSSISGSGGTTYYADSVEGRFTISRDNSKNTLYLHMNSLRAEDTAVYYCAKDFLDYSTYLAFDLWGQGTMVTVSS VL: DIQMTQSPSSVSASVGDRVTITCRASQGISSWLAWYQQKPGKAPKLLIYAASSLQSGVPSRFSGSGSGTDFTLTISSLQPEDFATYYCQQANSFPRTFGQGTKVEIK	63.6
H1H706P (antibody, V domains shown, Fully human antibody, human IgG1) VH: QVQLVESGGGVVQPGRSLRLSCAASGFTFSSYGMHWVRQAPDKGLEWVAVKWDDGSNKYYADSVKGRFTISRDNSKNTLYLQMNSLRAEDTAVYYCAREGPYDFYSGYGAFDIWGQGTMVTVSS VL: DIQMTQSPSSLSASVGDRVTITCRASQGISNYLAWFQQKPGKAPKSLIYAASSLQSGVPSKFSGSGSGTDFTLTISSLQPEDFATYYCQQYNSYPRTFGQGTKVEIK	95.9
H1H695P (antibody, V domains shown, Fully human antibody, human IgG1) VH: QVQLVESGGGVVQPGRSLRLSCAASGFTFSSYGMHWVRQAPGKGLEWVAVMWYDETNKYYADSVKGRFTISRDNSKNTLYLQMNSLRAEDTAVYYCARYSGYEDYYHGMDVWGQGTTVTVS VL: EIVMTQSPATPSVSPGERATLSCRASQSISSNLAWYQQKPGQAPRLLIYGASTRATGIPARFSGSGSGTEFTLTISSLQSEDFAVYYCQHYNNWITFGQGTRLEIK	97.6
H1H690P (antibody, V domains shown, Fully human antibody, human IgG1) VH: EVQLVESGGGLVQPGESLRLSCAASGFTFSSYAMSWVRQGPGKGLEWVSSITGSGDTTYYADSVKGRFTISRDNSKNTLYLHMNSLRAEDTAVYYCAKDFLDYSTYLAFDLWGQGTMVTVSS VL: EIVLTQSPATLSLSPGERATLSCRASQSVSSYLTWYQQKPGQAPRLLSYDASNRATGIPARFSGSGSGTDFTLTISSLEPEDFAVYYCQQRSNWPLTFGGGTKVEIK	98

Query (binder): H1H744N (antibody, V domains shown) VH: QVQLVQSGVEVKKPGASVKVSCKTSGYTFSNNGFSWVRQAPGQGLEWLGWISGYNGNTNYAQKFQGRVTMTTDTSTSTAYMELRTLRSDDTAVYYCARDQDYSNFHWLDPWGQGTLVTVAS VL: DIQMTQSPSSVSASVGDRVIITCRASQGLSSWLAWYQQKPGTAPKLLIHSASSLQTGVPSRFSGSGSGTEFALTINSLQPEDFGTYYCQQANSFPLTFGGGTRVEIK ; field requested: Percent Blocking of Ang-2FD Binding to Tie-2
97.6

Entry under review: H1H691P (antibody, V domains shown, Fully human antibody, human IgG1) VH: EVQLVESGGGLVQPGRSLRLSCAASGFTFDDYAMHWVRQAPGKGLEWVSGISWNSGDIGYADSVKGRFTISRDNAKNSLYLQMNSLRAQDTALYYCAKAYGDYYYFYGMDVWGQGTTVTVS VL: EIVLTQSPGTLSLSPGERATLSCRASQSVSSSYLAWYQQKPGQAPRLLIFSASSRATGIPDRFSGSGSGTDFTLTISRLEPEDFAVYYCQQYDNSLTFGGGTKVEIK . Reported Percent Blocking of Ang-2FD Binding to Tie-2?
96.7
